target: human EGF receptor (Homo sapiens); construct: expressed in transfected cells; host or cells: NIH3T3 clone C7 (EGFR/C7; mouse fibroblasts); test: EGF-receptor whole cell kinase assay (EGFR-3T3); assay type: cell-based; conditions: Table VI, cellular kinase assay; read-out: EGFR-3T3
pIC50: −log10 of the molar value.

{"columns": ["chem-smiles", "pIC50"],
 "data": [
  ["N#CC(C#N)=Cc1cc(O)c(O)c(I)c1", 4.87],
  ["CC(C)(C)c1cc(/C=C(\\C#N)C(=O)NCCCc2ccccc2)cc(C(C)(C)C)c1O", "< 4.00"],
  ["N#C/C(=C\\c1ccc(O)c(O)c1)C(=O)NCCCCc1ccccc1", "≤ 4.30"],
  ["Cc1cc(/C=C(\\C#N)S(=O)(=O)/C(C#N)=C/c2cc(C)c(O)c(C)c2)cc(C)c1O", "< 4.00"],
  ["CC(C)(C)c1cc(/C=C(\\C#N)S(=O)(=O)c2ccccc2)cc(C(C)(C)C)c1O", "< 4.00"],
  ["N#C/C(=C\\c1cc(O)c(O)c(I)c1)C(=O)NCc1ccccc1", 4.77],
  ["N#C/C(=C\\c1ccc([N+](=O)[O-])c(O)c1)C(=O)NCCCc1ccccc1", 5.17],
  ["Cc1cc(/C=C(\\C#N)S(=O)(=O)c2ccccc2)cc(C)c1O", "< 4.00"],
  ["CC(C)c1cc(/C=C(\\C#N)C(N)=S)cc(C(C)C)c1O", "< 4.00"],
  ["Cc1cc(/C=C(\\C#N)S(=O)(=O)c2ccccn2)cc(C)c1O", 4.19],
  ["CC(C)c1cc(/C=C(\\C#N)C(=S)NCCCc2ccccc2)cc(C(C)C)c1O", "< 4.30"],
  ["CC(C)c1cc(/C=C(\\C#N)C(=O)NCCCc2ccccc2)cc(C(C)C)c1O", "< 4.00"],
  ["CC(C)c1cc(/C=C(\\C#N)S(=O)(=O)CC#N)cc(C(C)C)c1O", "< 4.30"],
  ["N#C/C(=C\\c1ccc(O)c(O)c1)C(=S)NCc1ccccc1", "< 4.00"],
  ["N#C/C(=C\\c1ccc(O)c(O)c1)C(=O)Nc1cccc(C(F)(F)F)c1", "< 4.00"],
  ["CC(C)(C)c1cc(C=C(C#N)C#N)cc(Br)c1O", 4.43],
  ["CC(C)c1cc(C=C(C#N)C#N)cc(C(C)C)c1O", "< 4.30"],
  ["CC(C)(C)c1cc(/C=C(\\C#N)S(=O)(=O)c2ccccn2)cc(C(C)(C)C)c1O", "< 4.00"]
]}

* * *

target: HER2 (Homo sapiens, UniProt P04626); construct: the human mammary carcinoma line BT474 (ATCC HTB2) expressing HER2; endogenous in cells; host or cells: BT474 human mammary carcinoma cells; assay: HER2-BT474 whole cell kinase ELISA; assay type: cell-based; conditions: Table VI, cellular kinase assay; read-out: HER2-BT474
Sequence (P04626 23-1255): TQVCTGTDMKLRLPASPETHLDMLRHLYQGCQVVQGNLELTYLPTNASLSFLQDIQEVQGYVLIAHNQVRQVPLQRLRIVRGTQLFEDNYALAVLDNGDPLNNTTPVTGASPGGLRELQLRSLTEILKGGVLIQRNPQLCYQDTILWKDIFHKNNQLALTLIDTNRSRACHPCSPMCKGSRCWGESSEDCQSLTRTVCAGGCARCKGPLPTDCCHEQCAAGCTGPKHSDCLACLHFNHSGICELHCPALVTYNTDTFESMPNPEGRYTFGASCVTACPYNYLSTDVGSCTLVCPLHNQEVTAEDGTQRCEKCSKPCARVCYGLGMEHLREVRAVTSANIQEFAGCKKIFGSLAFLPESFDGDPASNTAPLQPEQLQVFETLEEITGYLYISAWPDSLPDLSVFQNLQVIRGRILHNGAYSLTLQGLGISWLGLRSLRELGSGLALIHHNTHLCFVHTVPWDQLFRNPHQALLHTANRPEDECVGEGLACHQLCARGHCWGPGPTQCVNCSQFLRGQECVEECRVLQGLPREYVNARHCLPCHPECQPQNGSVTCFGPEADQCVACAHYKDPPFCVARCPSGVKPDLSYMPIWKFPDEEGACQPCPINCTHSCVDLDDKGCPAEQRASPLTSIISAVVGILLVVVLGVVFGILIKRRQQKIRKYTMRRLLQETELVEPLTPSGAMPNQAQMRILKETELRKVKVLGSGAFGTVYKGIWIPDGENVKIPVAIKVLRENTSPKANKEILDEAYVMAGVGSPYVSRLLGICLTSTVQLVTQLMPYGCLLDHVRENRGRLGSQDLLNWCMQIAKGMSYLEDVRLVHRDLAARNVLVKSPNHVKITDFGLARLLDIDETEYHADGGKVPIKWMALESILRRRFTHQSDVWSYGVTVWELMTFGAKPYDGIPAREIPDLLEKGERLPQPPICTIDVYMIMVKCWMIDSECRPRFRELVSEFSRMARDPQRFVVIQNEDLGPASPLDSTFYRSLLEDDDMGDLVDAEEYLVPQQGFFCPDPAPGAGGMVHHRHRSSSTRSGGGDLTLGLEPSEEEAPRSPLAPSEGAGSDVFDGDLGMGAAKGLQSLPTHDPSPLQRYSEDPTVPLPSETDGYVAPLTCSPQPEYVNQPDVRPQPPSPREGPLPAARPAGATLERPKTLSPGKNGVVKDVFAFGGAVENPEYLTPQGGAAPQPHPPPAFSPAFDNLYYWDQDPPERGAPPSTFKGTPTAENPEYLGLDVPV
pIC50: −log10 of the molar value.
// reported pIC50 for each item listed

{"columns": ["chem-smiles", "test-system", "pIC50"],
 "data": [
  ["CC(C)(C)c1cc(/C=C(\\C#N)S(=O)(=O)c2ccccc2)cc(C(C)(C)C)c1O", "HER2 (Homo sapiens, UniProt P04626)", 6.77],
  ["CC(C)(C)c1cc(C=C(C#N)c2[nH]nc(N)c2C#N)cc(C(C)(C)C)c1O", "HER2 (Homo sapiens, UniProt P04626)", 5.07],
  ["CC(C)c1cc(/C=C(\\C#N)C(N)=S)cc(C(C)C)c1O", "HER2 (Homo sapiens, UniProt P04626)", 5.51],
  ["CC(C)c1cc(/C=C(\\C#N)S(=O)(=O)c2ccccn2)cc(C(C)C)c1O", "HER2 (Homo sapiens, UniProt P04626)", 5.02],
  ["N#C/C(=C\\c1ccc(O)c(O)c1)C(=S)NCc1ccccc1", "HER2 (Homo sapiens, UniProt P04626)", 4.85],
  ["CC(C)c1cc(/C=C(\\C#N)C(=S)NCCCc2ccccc2)cc(C(C)C)c1O", "HER2 (Homo sapiens, UniProt P04626)", 5.51],
  ["CC(C)(C)c1cc(/C=C(\\C#N)C(=O)NCCCc2ccccc2)cc(C(C)(C)C)c1O", "HER2 (Homo sapiens, UniProt P04626)", 5.52],
  ["N#C/C(=C\\c1ccc(O)c(O)c1)C(=O)Nc1cccc(C(F)(F)F)c1", "HER2 (Homo sapiens, UniProt P04626)", 4.80]
]}

* * *

// reported pIC50 for each item listed
test system: MCF7 human breast carcinoma cells; assay: MCF-7 SRB growth assay; type: cell-based; settings: Homo sapiens, MCF7, 96 h, Table VI, 10% FBS, four days
pIC50: −log10 of the molar value.

{"columns": ["molecule", "pIC50"],
 "data": [
  ["CC(C)(C)c1cc(/C=C(\\C#N)C(=O)NCCCc2ccccc2)cc(C(C)(C)C)c1O [Compound M20]", 5.22],
  ["CC(C)c1cc(/C=C(\\C#N)C(=O)NCCCc2ccccc2)cc(C(C)C)c1O [Compound M21]", 4.85],
  ["CC(C)(C)c1cc(/C=C(\\C#N)C(N)=S)cc(C(C)(C)C)c1O [Compound M11]", 5.40],
  ["CC(C)c1cc(/C=C(\\C#N)S(=O)(=O)c2ccccc2)cc(C(C)C)c1O [Compound M30]", 5.05],
  ["N#C/C(=C\\c1ccc(O)c(O)c1)C(=O)Nc1cccc(C(F)(F)F)c1 [Compound M15]", 4.82],
  ["CC(C)(C)c1cc(/C=C(\\C#N)S(=O)(=O)c2ccccn2)cc(C(C)(C)C)c1O [Compound M34]", 5.70],
  ["CC(C)c1cc(/C=C(\\C#N)S(=O)(=O)CC#N)cc(C(C)C)c1O [Compound M27]", 4.48],
  ["CC(C)c1cc(/C=C(\\C#N)C(=O)Nc2ccc(C(F)(F)F)cc2)cc(C(C)C)c1O [Compound M28]", 4.92],
  ["CC(C)c1cc(/C=C(\\C#N)S(=O)(=O)/C(C#N)=C/c2cc(C(C)C)c(O)c(C(C)C)c2)cc(C(C)C)c1O [Compound M29]", 4.92],
  ["CC(C)c1cc(C=C(C#N)C(N)=C(C#N)C#N)cc(C(C)C)c1O [Compound M22]", 4.36],
  ["CC(C)(C)c1cc(/C=C(\\C#N)C(=O)Nc2ccc(C(F)(F)F)cc2)cc(C(C)(C)C)c1O [Compound M35]", 6.52],
  ["CC(C)(C)c1cc(/C=C(\\C#N)S(=O)(=O)c2ccccc2)cc(C(C)(C)C)c1O [Compound M33]", 6.00],
  ["CC(C)(C)c1cc(/C=C(\\C#N)S(=O)(=O)CC#N)cc(C(C)(C)C)c1O [Compound M36]", 5.10],
  ["CC(C)c1cc(/C=C(\\C#N)C(=S)NCCCc2ccccc2)cc(C(C)C)c1O [Compound M24]", 5.10]
]}

* * *

target: human EGF receptor (Homo sapiens, UniProt P00533); construct: expressed in transfected cells; host or cells: NIH3T3 clone C7 (EGFR/C7; mouse fibroblasts); assay: EGF-receptor whole cell kinase assay (EGFR-3T3); assay type: cell-based; conditions: Table III, cellular kinase assay, class symbol; read-out: EGFR
Sequence (P00533 25-1210): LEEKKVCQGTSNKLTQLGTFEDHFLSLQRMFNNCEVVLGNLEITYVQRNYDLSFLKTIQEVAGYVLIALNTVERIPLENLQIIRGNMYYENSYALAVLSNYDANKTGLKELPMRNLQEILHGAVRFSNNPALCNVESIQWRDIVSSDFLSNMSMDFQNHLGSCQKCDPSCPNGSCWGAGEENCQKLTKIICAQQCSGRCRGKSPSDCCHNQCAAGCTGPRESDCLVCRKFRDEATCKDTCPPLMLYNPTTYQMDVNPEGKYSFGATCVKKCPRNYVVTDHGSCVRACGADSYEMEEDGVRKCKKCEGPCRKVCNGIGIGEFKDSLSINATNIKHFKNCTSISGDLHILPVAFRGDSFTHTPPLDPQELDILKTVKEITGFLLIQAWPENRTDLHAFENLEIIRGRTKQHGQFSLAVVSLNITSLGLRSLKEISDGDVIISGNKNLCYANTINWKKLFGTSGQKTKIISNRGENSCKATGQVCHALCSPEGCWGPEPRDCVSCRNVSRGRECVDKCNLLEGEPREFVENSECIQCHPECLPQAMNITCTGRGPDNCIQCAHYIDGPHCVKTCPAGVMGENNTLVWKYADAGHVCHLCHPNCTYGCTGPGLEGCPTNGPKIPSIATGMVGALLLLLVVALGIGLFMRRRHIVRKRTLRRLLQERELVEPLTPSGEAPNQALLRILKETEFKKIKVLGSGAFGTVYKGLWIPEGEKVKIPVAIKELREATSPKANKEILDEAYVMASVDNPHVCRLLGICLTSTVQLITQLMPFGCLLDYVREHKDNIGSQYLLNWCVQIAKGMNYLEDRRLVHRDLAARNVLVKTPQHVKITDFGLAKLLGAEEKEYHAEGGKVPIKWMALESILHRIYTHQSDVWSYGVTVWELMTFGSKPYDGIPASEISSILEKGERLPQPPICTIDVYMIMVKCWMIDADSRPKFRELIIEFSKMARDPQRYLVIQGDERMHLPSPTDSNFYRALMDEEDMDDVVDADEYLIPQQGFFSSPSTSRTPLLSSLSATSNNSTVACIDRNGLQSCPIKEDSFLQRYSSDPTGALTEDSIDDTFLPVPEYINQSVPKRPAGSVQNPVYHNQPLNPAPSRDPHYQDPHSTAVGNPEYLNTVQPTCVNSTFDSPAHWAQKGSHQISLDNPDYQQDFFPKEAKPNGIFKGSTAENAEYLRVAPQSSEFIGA

{"columns": ["compound", "IC50"],
 "data": [
  ["Cc1ccc2ncnc(Nc3ccc4c(c3)OCO4)c2c1 [Compound P14a]", "< 50 µM"],
  ["Cc1ccc2ncnc(Nc3cccc(Cl)c3)c2c1 [Compound P12a]", "< 50 µM"],
  ["Cc1ccc2ncnc(Nc3ccc4c(c3)OCO4)c2c1 [Compound P14b]", "< 50 µM"]
]}

* * *

molecular target: HER2 (Homo sapiens); construct: the human mammary carcinoma line BT474 (ATCC HTB2) expressing HER2; endogenous in cells; host or cells: BT474 human mammary carcinoma cells; test: HER2-BT474 whole cell kinase ELISA; format: cell-based; details: Table III, cellular kinase assay, class symbol; read-out: HER2
// reported IC50 for each item listed

{"columns": ["compound", "IC50"],
 "data": [
  ["Cc1ccc2ncnc(Nc3cccc(Cl)c3)c2c1 [Compound P12a]", "< 50 µM"],
  ["COc1cc2ncnc(Nc3cccc(Cl)c3)c2cc1OC [Compound P13a]", "< 50 µM"],
  ["Cc1ccc2ncnc(Nc3ccc4c(c3)OCO4)c2c1 [Compound P14b]", "> 50 µM"],
  ["Cc1ccc2ncnc(Nc3ccc4c(c3)OCO4)c2c1 [Compound P14a]", "> 50 µM"]
]}

* * *

molecular target: HER2 (Homo sapiens, UniProt P04626); construct: the human mammary carcinoma line BT474 (ATCC HTB2) expressing HER2; endogenous in cells; host or cells: BT474 human mammary carcinoma cells; assay: HER2-BT474 whole cell kinase ELISA; format: cell-based; conditions: Table V; read-out: Estimated IC50 Cellular Kinase Assays HER2 (BT474)
endpoint-name: IC50

{"columns": ["compound", "endpoint-name", "measurement"],
 "data": [
  ["Cc1cc2nc3c(nc2cc1C)-c1ccccc1C3=O", "IC50", "> 50 µM"],
  ["CC(C)(C)c1cc(/C=C(\\C#N)C(N)=S)cc(C(C)(C)C)c1O", "IC50", "< 3 µM"],
  ["Cc1ccc2ncnc(Nc3ccc4c(c3)OCO4)c2c1 [Compound P14a]", "IC50", "> 50 µM"],
  ["CC(C)(C)c1cc(C=C(C#N)C#N)cc(Br)c1O", "IC50", "> 50 µM"]
]}

Values compiled from patent US6596878B2.
